The reported numbers originate from patent US7514452B2.

molecular target: glucagon receptor (Rattus norvegicus, UniProt P30082); experiment: Experiment for glucagon binding inhibition, rat hepatic membrane (125I-glucagon); details: male SD rat hepatic membrane, 125I-glucagon 50 pM, 25° C. for 30 minutes; read-out: Glucagon binding inhibitory activity IC50 (nM) Rat
Sequence (P30082 27-485): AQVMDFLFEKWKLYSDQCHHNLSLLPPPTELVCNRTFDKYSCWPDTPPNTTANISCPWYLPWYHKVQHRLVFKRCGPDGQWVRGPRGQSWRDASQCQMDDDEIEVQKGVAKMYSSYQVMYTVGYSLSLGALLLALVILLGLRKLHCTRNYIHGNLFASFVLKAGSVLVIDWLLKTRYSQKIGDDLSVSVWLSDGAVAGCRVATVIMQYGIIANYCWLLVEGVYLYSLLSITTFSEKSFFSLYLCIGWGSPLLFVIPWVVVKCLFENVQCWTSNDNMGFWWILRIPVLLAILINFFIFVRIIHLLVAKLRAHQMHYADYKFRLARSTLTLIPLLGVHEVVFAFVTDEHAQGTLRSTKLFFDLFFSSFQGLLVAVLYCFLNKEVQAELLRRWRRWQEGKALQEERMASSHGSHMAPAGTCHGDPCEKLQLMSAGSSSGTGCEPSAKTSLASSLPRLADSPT
reported.metric: IC50 (nM)

Take a look at these entries with their results.
compound.string: Cc1ccc(COc2cccc(-c3ccoc3C(=O)NNC(=O)c3ccc(O)c([N+](=O)[O-])c3)c2)cc1
IC50 / nM: 14
//
compound.string: CS(=O)(=O)c1ccc(COc2cccc(-c3ccoc3C(=O)NNC(=O)c3ccc(O)c(C#N)c3)c2)cc1
IC50 / nM: 96
//
compound.string: O=C(NNC(=O)c1occc1-c1ccccc1)c1ccc(O)c([N+](=O)[O-])c1
IC50 / nM: 89
//
compound.string: Cc1ccc(COc2cccc(-c3ccoc3C(=O)NNC(=O)c3ccc(O)c([N+](=O)[O-])c3)c2)c(C)c1
IC50 / nM: 3.4
//
compound.string: N#Cc1cc(C(=O)NNC(=O)c2occc2-c2ccc(Oc3ccccc3)cc2)ccc1O
IC50 / nM: 87

[a] CCCCOc1ccc(-c2ccoc2C(=O)NNC(=O)c2ccc(O)c([N+](=O)[O-])c2)cc1
[b] Cc1cc(C)c(C)c(COc2cccc(-c3c(-c4ccccc4)coc3C(=O)NNC(=O)c3ccc(O)c([N+](=O)[O-])c3)c2)c1C
Ask: Between a and b , which one has the lower reported IC50 value? Indicate your choice by writing its label.
Reply: b
(b: 5.8 nM, a: 100 nM)

----------
molecular target: glucagon receptor (Mus musculus, UniProt Q61606); assay: Experiment for glucagon binding inhibition, mouse hepatic membrane (125I-glucagon); conditions: male ddY mouse hepatic membrane, 125I-glucagon 50 pM, 25° C. for 30 minutes; read-out: Glucagon binding inhibitory activity IC50 (nM) Mouse
Sequence (Q61606 27-485): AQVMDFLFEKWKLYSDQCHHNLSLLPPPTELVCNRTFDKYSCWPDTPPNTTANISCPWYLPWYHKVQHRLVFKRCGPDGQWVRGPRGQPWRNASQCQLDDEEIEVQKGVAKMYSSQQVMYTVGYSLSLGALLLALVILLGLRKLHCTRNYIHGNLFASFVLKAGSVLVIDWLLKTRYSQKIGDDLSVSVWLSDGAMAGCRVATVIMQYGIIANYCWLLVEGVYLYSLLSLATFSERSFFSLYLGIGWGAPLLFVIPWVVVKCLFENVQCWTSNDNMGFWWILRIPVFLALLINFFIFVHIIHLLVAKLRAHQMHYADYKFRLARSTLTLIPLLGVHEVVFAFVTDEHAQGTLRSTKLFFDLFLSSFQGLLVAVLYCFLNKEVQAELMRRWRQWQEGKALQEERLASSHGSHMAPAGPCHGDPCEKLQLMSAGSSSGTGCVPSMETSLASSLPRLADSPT
reported.metric: IC50 (nM)

Take a look at these entries with their results.
compound.string: O=C(NNC(=O)c1occc1-c1ccc2[nH]ccc2c1)c1ccc(O)c([N+](=O)[O-])c1
reported.metric: IC50
observed.result: 9.5

compound.string: O=C(NNC(=O)c1occc1-c1cccc(CCc2ccccc2)c1)c1ccc(O)c([N+](=O)[O-])c1
reported.metric: IC50
observed.result: 34

compound.string: N#Cc1cc(C(=O)NNC(=O)c2occc2-c2ccc(Oc3ccccc3)cc2)ccc1O
reported.metric: IC50
observed.result: 180

compound.string: O=C(NNC(=O)c1occc1-c1ccc(Cc2ccccc2)cc1)c1ccc(O)c([N+](=O)[O-])c1
reported.metric: IC50
observed.result: 7.9

compound.string: O=C(NNC(=O)c1occc1-c1ccc2ccccc2c1)c1ccc(O)c([N+](=O)[O-])c1
reported.metric: IC50
observed.result: 37

[A] CCCc1ccc(-c2ccoc2C(=O)NNC(=O)c2ccc(O)c([N+](=O)[O-])c2)cc1
[B] Cc1ccc(C)c(COc2cccc(-c3ccoc3C(=O)NNC(=O)c3ccc(O)c([N+](=O)[O-])c3)c2)c1
Ask: Between A and B , which one has the lower reported IC50 value? Indicate your choice by writing its label.
Reply: A

----------
reported.metric: melting point

Take a look at these entries with their results.
compound: Cc1ccc(COc2cccc(-c3ccoc3C(=O)NNC(=O)c3ccc(O)c([N+](=O)[O-])c3)c2)cc1C [Example 129]
reported.metric: melting point
observed.result: 157 to 162 °C
--
compound: Cc1cccc(C)c1COc1cccc(-c2ccoc2C(=O)NNC(=O)c2ccc(O)c([N+](=O)[O-])c2)c1 [Example 224]
reported.metric: melting point
observed.result: 100 to 101 °C
--
compound: CCc1c(-c2ccccc2)coc1C(=O)NNC(=O)c1ccc(O)c(C#N)c1
reported.metric: melting point
observed.result: 190 to 192 °C

Ask: What value of melting point has been reported for the following compound? CC(c1ccccc1)c1cccc(-c2ccoc2C(=O)NNC(=O)c2ccc(O)c([N+](=O)[O-])c2)c1 (stereo not shown) [Example 230]
Reply: 147 to 149 °C

----------
biological target: glucagon receptor (Rattus norvegicus, UniProt P30082); experiment: Experiment for glucagon binding inhibition, rat hepatic membrane (125I-glucagon); conditions: male SD rat hepatic membrane, 125I-glucagon 50 pM, 25° C. for 30 minutes; read-out: Glucagon binding inhibitory activity IC50 (nM) Rat
reported.metric: IC50 (nM)

Take a look at these entries with their results.
compound.string: CC(C)CCOc1cccc(-c2ccoc2C(=O)NNC(=O)c2ccc(O)c([N+](=O)[O-])c2)c1
tgt: glucagon receptor (Rattus norvegicus, UniProt P30082)
value.unit: nM
IC50: 84
--
compound.string: Cc1ccccc1COc1ccc(-c2ccoc2C(=O)NNC(=O)c2ccc(O)c([N+](=O)[O-])c2)cc1
tgt: glucagon receptor (Rattus norvegicus, UniProt P30082)
value.unit: nM
IC50: 35
--
compound.string: N#Cc1cc(C(=O)NNC(=O)c2occc2-c2ccccc2OCCc2ccccc2)ccc1O
tgt: glucagon receptor (Rattus norvegicus, UniProt P30082)
value.unit: nM
IC50: 85
--
compound.string: Cc1cc(C)c(C)c(COc2ccccc2-c2ccoc2C(=O)NNC(=O)c2ccc(O)c(C#N)c2)c1C
tgt: glucagon receptor (Rattus norvegicus, UniProt P30082)
value.unit: nM
IC50: 210
--
compound.string: CCCCOc1cccc(-c2ccoc2C(=O)NNC(=O)c2ccc(O)c([N+](=O)[O-])c2)c1
tgt: glucagon receptor (Rattus norvegicus, UniProt P30082)
value.unit: nM
IC50: 30

[a] CC(C)COc1cccc(-c2ccoc2C(=O)NNC(=O)c2ccc(O)c([N+](=O)[O-])c2)c1
[b] N#Cc1cc(C(=O)NNC(=O)c2occ(-c3ccc(F)cc3)c2-c2ccc(F)cc2)ccc1O
[c] Cc1cc(C)cc(COc2cccc(-c3ccoc3C(=O)NNC(=O)c3ccc(O)c([N+](=O)[O-])c3)c2)c1
[d] Cc1ccc(COc2cccc(-c3ccoc3C(=O)NNC(=O)c3ccc(O)c([N+](=O)[O-])c3)c2)cc1C
[e] Cc1cc(C)c(C)c(COc2ccc(-c3ccoc3C(=O)NNC(=O)c3ccc(O)c(C#N)c3)cc2)c1C
Ask: Please give the order of these compounds when sorted by IC50, largest value leading. Put the labels in the order asked and list them.
Reply: b, a, e, c, d
(b: 220 nM, a: 51 nM, e: 27 nM, c: 12 nM, d: 5.2 nM)

[P] Cc1cccc(Cc2cccc(-c3ccoc3C(=O)NNC(=O)c3ccc(O)c([N+](=O)[O-])c3)c2)c1
[Q] O=C(NNC(=O)c1occc1-c1cccc(OCc2cccc3ccccc23)c1)c1ccc(O)c([N+](=O)[O-])c1
[R] Cc1ccccc1COc1cccc(-c2ccoc2C(=O)NNC(=O)c2ccc(O)c([N+](=O)[O-])c2)c1
Ask: Sort ascending by IC50. Put the labels in the order asked and list them.
Reply: Q, R, P
(Q: 7.9 nM, R: 16 nM, P: 49 nM)

----------
reported.metric: melting point

Take a look at these entries with their results.
compound.string: CS(=O)(=O)c1ccc(COc2cccc(-c3ccoc3C(=O)NNC(=O)c3ccc(O)c(C#N)c3)c2)cc1
melting point: 235 to 237 °C

compound.string: O=C(NNC(=O)c1occ(-c2ccccc2)c1-c1ccccc1)c1cccs1
melting point: 132 to 135 °C

compound.string: Cc1ccc(-c2ccoc2C(=O)NNC(=O)c2ccc(O)c([N+](=O)[O-])c2)cc1C
melting point: 127 to 129 °C

compound.string: COc1ccc(C(=O)NNC(=O)c2occ(-c3ccccc3)c2-c2ccccc2)cc1C#N
melting point: 220 to 225 °C

compound.string: O=C(NNC(=O)c1occ(-c2ccccc2)c1-c1ccccc1)c1ccncc1
melting point: 115 to 120 °C

compound.string: O=C(NNC(=O)c1occ(-c2ccccc2)c1-c1ccccc1)c1ccc(O)c(Cl)c1
melting point: 197 to 199 °C

Ask: What value of melting point has been reported for the following compound? `CCCCCOc1ccc(-c2ccoc2C(=O)NNC(=O)c2ccc(O)c([N+](=O)[O-])c2)cc1`
Reply: 156 to 157 °C

----------
Parameter melting point: see the listing below.

Take a look at these entries with their results.
compound: CCCCOc1ccc(-c2ccoc2C(=O)NNC(=O)c2ccc(O)c([N+](=O)[O-])c2)cc1 [Example 161]
melting point: 155 to 156 °C
//
compound: CCCCCc1ccc(-c2ccoc2C(=O)NNC(=O)c2ccc(O)c([N+](=O)[O-])c2)cc1 [Example 162]
melting point: 163 to 165 °C
//
compound: O=C(NNC(=O)c1occc1-c1ccc2[nH]ccc2c1)c1ccc(O)c([N+](=O)[O-])c1 [Example 207]
melting point: 129 to 131 °C

// moving on: another record for melting point
Ask: What value of melting point has been reported for the following compound? COc1ccc(Cc2cccc(-c3ccoc3C(=O)NNC(=O)c3ccc(O)c([N+](=O)[O-])c3)c2)cc1 [Example 234]
Reply: 102 to 104 °C

----------
target: glucagon receptor (Mus musculus); assay: Experiment for glucagon binding inhibition, mouse hepatic membrane (125I-glucagon); details: male ddY mouse hepatic membrane, 125I-glucagon 50 pM, 25° C. for 30 minutes; read-out: Glucagon binding inhibitory activity IC50 (nM) Mouse
reported.metric: IC50 (nM)

[A] Cc1cc(C)c(C)c(COc2ccc(-c3ccoc3C(=O)NNC(=O)c3ccc(O)c([N+](=O)[O-])c3)cc2)c1C
[B] CCCCOc1cccc(-c2ccoc2C(=O)NNC(=O)c2ccc(O)c(C#N)c2)c1
[C] CCCCOc1ccc(-c2ccoc2C(=O)NNC(=O)c2ccc(O)c([N+](=O)[O-])c2)cc1
[D] Cc1cc(C)c(C)c(COc2cccc(-c3coc(C(=O)NNC(=O)c4ccc(O)c(C#N)c4)c3-c3ccccc3)c2)c1C
[E] C=CCOc1cccc(-c2ccoc2C(=O)NNC(=O)c2ccc(O)c([N+](=O)[O-])c2)c1
Ask: Rank the listed compounds, smallest IC50 first and largest last. Put the labels in the order asked and list them.
Reply: D, A, E, C, B
